This section presents compounds with their documented pIC50 values.
Tested on: MOLM-13
Assay: Antiproliferative activity against human MOLM-13 cells harboring FLT3-ITD mutant assessed as cell growth inhibition measured after 72 hrs by CCK8 assay
Details: MOLM-13, 72 h
pIC50: −log10 of the molar value.
Result Type: pIC50

[
  {
    "Smiles String": "C=CC(=O)N1CCC(C(=O)Nc2ccc(-c3cc(C)nc4noc(N)c34)cc2)CC1",
    "Limit Sign": "<",
    "Quantitative Readout": 5.00
  },
  {
    "Smiles String": "C=CS(=O)(=O)Nc1ccc(C(=O)Nc2ccc(-c3cc(C)nc4noc(N)c34)cc2)cc1",
    "Limit Sign": "<",
    "Quantitative Readout": 5.00
  },
  {
    "Smiles String": "C=CC(=O)Nc1cccc(CC(=O)Nc2ccc(-c3cc(C)nc4noc(N)c34)cc2)c1",
    "Limit Sign": "=",
    "Quantitative Readout": 5.60
  },
  {
    "Smiles String": "C=CC(=O)Nc1ccc(C(=O)Nc2ccc(-c3cc(C)nc4noc(N)c34)cc2)cc1F",
    "Limit Sign": "<",
    "Quantitative Readout": 5.00
  },
  {
    "Smiles String": "C=CC(=O)Nc1ccc(C(=O)Nc2ccc(-c3cc(C)nc4noc(N)c34)cc2)cc1",
    "Limit Sign": "=",
    "Quantitative Readout": 5.32
  },
  {
    "Smiles String": "C=CC(=O)Nc1ccc(C(=O)Nc2ccc(-c3cc(C)nc4noc(N)c34)cc2)cc1C",
    "Limit Sign": "<",
    "Quantitative Readout": 5.00
  },
  {
    "Smiles String": "C=CC(=O)Nc1ccc(C(=O)Nc2ccc(-c3cc(C)nc4noc(N)c34)cc2)cc1OC",
    "Limit Sign": "<",
    "Quantitative Readout": 5.00
  },
  {
    "Smiles String": "C=CC(=O)Nc1cccc(C(=O)Nc2ccc(-c3cc(C)nc4noc(N)c34)cc2)c1",
    "Limit Sign": "=",
    "Quantitative Readout": 6.15
  },
  {
    "Smiles String": "C=CC(=O)Nc1ccc(C(=O)Nc2ccc(-c3cc(C)nc4noc(N)c34)cc2)c(C(F)(F)F)c1",
    "Limit Sign": "=",
    "Quantitative Readout": 5.16
  }
]

Where do the numbers come from? From ChEMBL document CHEMBL5113503.
